Test: Dye stabilization effect under daylight exposure (Test Examples 6-91)
Format: physicochemical
Design: key: ◯: no change; Δ: almost no change; x: change
Conditions: dye Green 3 (Fast Green FCF) 0.001 wt %; photostabilizer 0.05 wt %; daylight exposure (80 MJ)
Method: For observation of the change of the appearance of each test sample (determination based on visual observation) and the measurement of color difference (ΔE) before and after daylight exposure (80 MJ), the test sample was prepared. With a spectrophotometer, the color was measured on the Lab coordinate system, to calculate the color difference on the basis of the color before daylight exposure. […]

compound: COc1cc(O)c(C(=O)c2ccccc2)cc1S(=O)(=O)[O-].[Na+] [reference compound]
Appearance (visual determination): Δ
--
compound: OCCNc1ccc(NCCO)nn1 [3,6-Bis(2-hydroxyethylamino)pyridazine, 3,6-bis(2-hydroxyethylamino)pyridazine]
Appearance (visual determination): ◯
--
compound: Oc1ccc(N2CCOCC2)nn1 [3-Hydroxy-6-morpholinopyridazine, 6-Morpholino-3-hydroxypyridazine]
Appearance (visual determination): ◯
--
compound: Oc1nnccc1N1CCOCC1 [3-Hydroxy-4-morpholinopyridazine, 3-hydroxy-4-morpholinopyridazine]
Appearance (visual determination): ◯
--
compound: OCCN(CCO)c1cnnc(O)c1
Appearance (visual determination): ◯
--
compound: COc1ccc(C(=O)c2ccccc2)c(O)c1 [2-Hydroxy-4-methoxybenzophenone, reference compound]
Appearance (visual determination): Δ

###

Test: Drug stabilization effect under daylight exposure (Test Examples 182 to 211)
Format: physicochemical
Settings: drug dibutylhydroxytoluene 0.01 wt %; photostabilizer 0.05 wt %; daylight exposure (80 MJ); liquid chromatography
The entries below come with measured Remaining ratio (%) values attached.

compound: COc1ccc(C(=O)c2ccccc2)c(O)c1 [2-Hydroxy-4-methoxybenzophenone, reference compound]
result.unit: %
Remaining ratio (%): 95.2

compound: Oc1ccc(N2CCOCC2)nn1 [3-Hydroxy-6-morpholinopyridazine, 6-Morpholino-3-hydroxypyridazine]
result.unit: %
Remaining ratio (%): 98.0

compound: COc1ccc(C(=O)CC(=O)c2ccc(C(C)(C)C)cc2)cc1 [4-tert-Butyl-4′-methoxydibenzoylmethane, reference compound]
result.unit: %
Remaining ratio (%): 95.2

compound: Oc1cc(N2CCOCC2)cnn1 [3-Hydroxy-5-morpholinopyridazine, 3-hydroxy-5-morpholinopyridazine]
result.unit: %
Remaining ratio (%): 98.8

compound: Oc1nncc(N2CCCCC2)c1N1CCCCC1 [4,5-Dipiperidino-3-hydroxypyridazine]
result.unit: %
Remaining ratio (%): 99.0

###

Experiment: Drug stabilization effect under daylight exposure (Test Examples 182 to 211)
Assay type: physicochemical
Parameters: key: ◯: no change; Δ: almost no change; x: change
Conditions: drug dl-α-tocopherol 2-L-ascorbic acid phosphate diester potassium salt 0.01 wt %; photostabilizer 0.05 wt %; daylight exposure (80 MJ)
recorded.metric: Appearance (visual determination)

compound: Oc1nncc(N2CCCCC2)c1N1CCCCC1 [4,5-Dipiperidino-3-hydroxypyridazine]
data.value: ◯

compound: Oc1cc(N2CCOCC2)cnn1 [3-Hydroxy-5-morpholinopyridazine, 3-hydroxy-5-morpholinopyridazine]
data.value: ◯

compound: Oc1cc(N2CCCCC2)cnn1 [3-Hydroxy-5-piperidinopyridazine, 3-hydroxy-5-piperidinopyridazine]
data.value: ◯

compound: COc1ccc(C(=O)c2ccccc2)c(O)c1 [2-Hydroxy-4-methoxybenzophenone, reference compound]
data.value: Δ

compound: COc1ccc(C(=O)CC(=O)c2ccc(C(C)(C)C)cc2)cc1 [4-tert-Butyl-4′-methoxydibenzoylmethane, reference compound]
data.value: Δ

###

Experiment: Dye stabilization effect under daylight exposure (Test Examples 6-91)
Format: physicochemical
Set-up: key: ◯: no change; Δ: almost no change; x: change
Conditions: dyes Yellow 203 (Quinoline Yellow WS) 0.0001 + Yellow 5 (Sunset Yellow FCF) 0.0001 wt %; photostabilizer 0.05 wt %; daylight exposure (80 MJ)

compound: COc1ccc(C(=O)CC(=O)c2ccc(C(C)(C)C)cc2)cc1 [4-tert-Butyl-4′-methoxydibenzoylmethane, reference compound]
Appearance (visual determination): ◯
--
compound: COc1ccc(C(=O)c2ccccc2)c(O)c1 [2-Hydroxy-4-methoxybenzophenone, reference compound]
Appearance (visual determination): ◯
--
compound: c1cc(N2CCOCC2)nnc1N1CCOCC1
Appearance (visual determination): ◯
--
compound: OCCNc1ccc(NCCO)nn1 [3,6-Bis(2-hydroxyethylamino)pyridazine, 3,6-bis(2-hydroxyethylamino)pyridazine]
Appearance (visual determination): ◯
--
compound: Oc1ccc(N2CCOCC2)nn1 [3-Hydroxy-6-morpholinopyridazine, 6-Morpholino-3-hydroxypyridazine]
Appearance (visual determination): ◯

###

Assay: Dye stabilization effect under daylight exposure (Test Examples 6-91)
Format: physicochemical
Design: key: color difference ΔE in Lab vs. color before daylight exposure
Conditions: dyes Yellow 203 (Quinoline Yellow WS) 0.0001 + Yellow 5 (Sunset Yellow FCF) 0.0001 wt %; photostabilizer 0.05 wt %; daylight exposure (80 MJ)
Δ E vs 0.5: at or above is MET, below is NOT MET.

compound: COc1ccc(C(=O)c2ccccc2)c(O)c1 [2-Hydroxy-4-methoxybenzophenone, reference compound]
class.label: MET

compound: OCCNc1ccc(NCCO)nn1 [3,6-Bis(2-hydroxyethylamino)pyridazine, 3,6-bis(2-hydroxyethylamino)pyridazine]
class.label: NOT MET

compound: COc1ccc(C(=O)CC(=O)c2ccc(C(C)(C)C)cc2)cc1 [4-tert-Butyl-4′-methoxydibenzoylmethane, reference compound]
class.label: NOT MET

compound: c1cc(N2CCOCC2)nnc1N1CCOCC1
class.label: NOT MET

compound: Oc1ccc(N2CCOCC2)nn1 [3-Hydroxy-6-morpholinopyridazine, 6-Morpholino-3-hydroxypyridazine]
class.label: NOT MET

###

Test: Drug stabilization effect under daylight exposure (Test Examples 182 to 211)
Assay type: physicochemical
Settings: drug salicylic acid 0.1 wt %; photostabilizer 0.05 wt %; daylight exposure (80 MJ); liquid chromatography
The entries below come with measured Remaining ratio (%) values attached.
recorded.metric: Remaining ratio (%)

molecule: Oc1cc(N2CCCCC2)cnn1 [3-Hydroxy-5-piperidinopyridazine, 3-hydroxy-5-piperidinopyridazine]
result.unit: %
data.value: 98.5
--
molecule: Oc1nncc(N2CCCCC2)c1N1CCCCC1 [4,5-Dipiperidino-3-hydroxypyridazine]
result.unit: %
data.value: 99.6
--
molecule: COc1ccc(C(=O)CC(=O)c2ccc(C(C)(C)C)cc2)cc1 [4-tert-Butyl-4′-methoxydibenzoylmethane, reference compound]
result.unit: %
data.value: 97.2
--
molecule: Oc1nnccc1N1CCCCC1 [3-Hydroxy-4-piperidinopyridazine, 3-hydroxy-4-piperidinopyridazine]
result.unit: %
data.value: 98.4
--
molecule: COc1ccc(C(=O)c2ccccc2)c(O)c1 [2-Hydroxy-4-methoxybenzophenone, reference compound]
result.unit: %
data.value: 98.2

###

Test: Drug stabilization effect under daylight exposure (Test Examples 182 to 211)
Format: physicochemical
Design: key: ◯: no change; Δ: almost no change; x: change
Settings: drug salicylic acid 0.1 wt %; photostabilizer 0.05 wt %; daylight exposure (80 MJ)

compound: Oc1nnccc1N1CCCCC1 [3-Hydroxy-4-piperidinopyridazine, 3-hydroxy-4-piperidinopyridazine]
Appearance (visual determination): ◯

compound: Oc1cc(N2CCCCC2)cnn1 [3-Hydroxy-5-piperidinopyridazine, 3-hydroxy-5-piperidinopyridazine]
Appearance (visual determination): ◯

compound: Oc1nncc(N2CCCCC2)c1N1CCCCC1 [4,5-Dipiperidino-3-hydroxypyridazine]
Appearance (visual determination): ◯

compound: COc1ccc(C(=O)CC(=O)c2ccc(C(C)(C)C)cc2)cc1 [4-tert-Butyl-4′-methoxydibenzoylmethane, reference compound]
Appearance (visual determination): Δ

compound: COc1ccc(C(=O)c2ccccc2)c(O)c1 [2-Hydroxy-4-methoxybenzophenone, reference compound]
Appearance (visual determination): Δ

###

Test: Drug stabilization effect under daylight exposure (Test Examples 182 to 211)
Type: physicochemical
Set-up: key: ◯: no change; Δ: almost no change; x: change
Conditions: drug L-ascorbic acid 2-glucoside 2.0 wt %; photostabilizer 0.05 wt %; daylight exposure (80 MJ)
recorded.metric: Appearance (visual determination)

compound: c1cc(N2CCOCC2)nnc1N1CCOCC1
recorded.metric: Appearance (visual determination)
data.value: ◯

compound: OCCNc1ccc(NCCO)nn1 [3,6-Bis(2-hydroxyethylamino)pyridazine, 3,6-bis(2-hydroxyethylamino)pyridazine]
recorded.metric: Appearance (visual determination)
data.value: ◯

compound: COc1ccc(C(=O)CC(=O)c2ccc(C(C)(C)C)cc2)cc1 [4-tert-Butyl-4′-methoxydibenzoylmethane, reference compound]
recorded.metric: Appearance (visual determination)
data.value: Δ

compound: Oc1nncc(N2CCCCC2)c1N1CCCCC1 [4,5-Dipiperidino-3-hydroxypyridazine]
recorded.metric: Appearance (visual determination)
data.value: ◯

compound: COc1ccc(C(=O)c2ccccc2)c(O)c1 [2-Hydroxy-4-methoxybenzophenone, reference compound]
recorded.metric: Appearance (visual determination)
data.value: Δ

###

Experiment: Drug stabilization effect under daylight exposure (Test Examples 182 to 211)
Assay type: physicochemical
Details: drug L-ascorbic acid 2-glucoside 2.0 wt %; photostabilizer 0.05 wt %; daylight exposure (80 MJ); liquid chromatography
The entries below come with measured Remaining ratio (%) values attached.
recorded.metric: Remaining ratio (%)

compound: OCCNc1ccc(NCCO)nn1 [3,6-Bis(2-hydroxyethylamino)pyridazine, 3,6-bis(2-hydroxyethylamino)pyridazine]
recorded.metric: Remaining ratio (%)
data.value: 98.8

compound: c1cc(N2CCOCC2)nnc1N1CCOCC1
recorded.metric: Remaining ratio (%)
data.value: 98.5

compound: Oc1nncc(N2CCCCC2)c1N1CCCCC1 [4,5-Dipiperidino-3-hydroxypyridazine]
recorded.metric: Remaining ratio (%)
data.value: 99.3

compound: COc1ccc(C(=O)c2ccccc2)c(O)c1 [2-Hydroxy-4-methoxybenzophenone, reference compound]
recorded.metric: Remaining ratio (%)
data.value: 97.8

compound: COc1ccc(C(=O)CC(=O)c2ccc(C(C)(C)C)cc2)cc1 [4-tert-Butyl-4′-methoxydibenzoylmethane, reference compound]
recorded.metric: Remaining ratio (%)
data.value: 97.0
